# ASSAY_SYSTEM: Human C3 (Complement tech cat #A113c) (human, UniProt P01024 23-1663)
# Sequence (P01024 23-1663 limits assumed): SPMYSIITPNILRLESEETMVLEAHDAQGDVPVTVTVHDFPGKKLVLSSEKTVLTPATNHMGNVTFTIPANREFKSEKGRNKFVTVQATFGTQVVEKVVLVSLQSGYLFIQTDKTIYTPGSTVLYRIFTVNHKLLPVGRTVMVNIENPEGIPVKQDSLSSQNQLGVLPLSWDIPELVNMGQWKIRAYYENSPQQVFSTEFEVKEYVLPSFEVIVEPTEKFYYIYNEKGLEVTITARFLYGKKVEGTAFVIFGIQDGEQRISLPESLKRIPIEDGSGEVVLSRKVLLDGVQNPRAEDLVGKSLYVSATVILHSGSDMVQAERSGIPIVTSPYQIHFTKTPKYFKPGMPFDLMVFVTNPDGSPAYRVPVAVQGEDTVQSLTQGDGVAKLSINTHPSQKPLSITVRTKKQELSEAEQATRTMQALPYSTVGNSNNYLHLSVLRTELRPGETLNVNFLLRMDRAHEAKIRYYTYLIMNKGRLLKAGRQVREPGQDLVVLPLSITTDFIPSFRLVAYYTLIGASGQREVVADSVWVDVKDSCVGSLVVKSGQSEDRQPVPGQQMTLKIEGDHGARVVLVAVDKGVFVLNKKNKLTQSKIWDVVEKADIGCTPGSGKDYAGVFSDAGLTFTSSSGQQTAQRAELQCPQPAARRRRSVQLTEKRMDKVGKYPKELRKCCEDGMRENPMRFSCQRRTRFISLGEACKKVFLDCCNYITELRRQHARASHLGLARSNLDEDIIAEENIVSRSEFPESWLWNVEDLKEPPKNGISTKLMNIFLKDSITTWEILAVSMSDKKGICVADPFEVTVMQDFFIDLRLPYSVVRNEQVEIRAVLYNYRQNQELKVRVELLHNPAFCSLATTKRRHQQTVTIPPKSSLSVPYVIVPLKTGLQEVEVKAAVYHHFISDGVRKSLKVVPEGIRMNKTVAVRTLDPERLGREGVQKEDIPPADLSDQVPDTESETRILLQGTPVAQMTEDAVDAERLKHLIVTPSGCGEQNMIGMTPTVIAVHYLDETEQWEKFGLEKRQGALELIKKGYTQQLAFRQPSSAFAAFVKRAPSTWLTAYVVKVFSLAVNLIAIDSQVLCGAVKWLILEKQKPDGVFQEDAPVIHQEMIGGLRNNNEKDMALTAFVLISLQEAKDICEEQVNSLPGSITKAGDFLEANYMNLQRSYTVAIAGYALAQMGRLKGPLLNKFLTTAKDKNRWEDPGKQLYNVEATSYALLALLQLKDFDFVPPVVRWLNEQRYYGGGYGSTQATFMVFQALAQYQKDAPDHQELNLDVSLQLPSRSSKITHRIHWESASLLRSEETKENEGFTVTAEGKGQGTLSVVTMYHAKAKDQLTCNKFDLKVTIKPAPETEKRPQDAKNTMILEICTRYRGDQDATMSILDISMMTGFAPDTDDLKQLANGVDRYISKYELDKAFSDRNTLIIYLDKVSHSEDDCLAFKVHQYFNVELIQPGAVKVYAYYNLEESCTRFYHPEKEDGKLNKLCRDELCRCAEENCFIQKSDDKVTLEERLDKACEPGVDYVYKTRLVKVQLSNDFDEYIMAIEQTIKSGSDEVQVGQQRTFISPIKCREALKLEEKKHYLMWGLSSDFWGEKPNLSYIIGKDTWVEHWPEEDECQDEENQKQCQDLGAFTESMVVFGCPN
# PROCEDURE_TEXT: cell-based or functional assay
Positions of bridges follow the written chain, without caps; N, C: chain ends. Non-standard residues stand in square brackets, D forms with d. Trp(1-Me) = Cn1cc(C[C@H](N)C(=O)O)c2ccccc21; Sar = CNCC(=O)O
MEASURED_METRIC: inhibition of hemolysis IC50

Ac-GEFCI[Trp(1-Me)]QDWGEHRC[Sar]EA-NH2 (disulfide 4-14; SMILES CC[C@H](C)[C@@H]1NC(=O)[C@@H](NC(=O)[C@H](Cc2ccccc2)NC(=O)[C@H](CCC(=O)O)NC(=O)CNC(C)=O)CSSC[C@@H](C(=O)N(C)CC(=O)N[C@@H](CCC(=O)O)C(=O)N[C@@H](C)C(N)=O)NC(=O)[C@H](CCCNC(=N)N)NC(=O)[C@H](Cc2c[nH]cn2)NC(=O)[C@H](CCC(=O)O)NC(=O)CNC(=O)[C@H](Cc2c[nH]c3ccccc23)NC(=O)[C@H](CC(=O)O)NC(=O)[C@H](CCC(N)=O)NC(=O)[C@H](Cc2cn(C)c3ccccc23)NC1=O) [Compound 87]    < 100 nM

With those in mind, consider the next binder.
Q: Query inhibition of hemolysis IC50 for Ac-EGSAICIWQDWGEHRCT-NH2 (disulfide 6-16; SMILES CC[C@H](C)[C@H](NC(=O)[C@H](C)NC(=O)[C@H](CO)NC(=O)CNC(=O)[C@H](CCC(=O)O)NC(C)=O)C(=O)N[C@H]1CSSC[C@@H](C(=O)N[C@H](C(N)=O)[C@@H](C)O)NC(=O)[C@H](CCCNC(=N)N)NC(=O)[C@H](Cc2c[nH]cn2)NC(=O)[C@H](CCC(=O)O)NC(=O)CNC(=O)[C@H](Cc2c[nH]c3ccccc23)NC(=O)[C@H](CC(=O)O)NC(=O)[C@H](CCC(N)=O)NC(=O)[C@H](Cc2c[nH]c3ccccc23)NC(=O)[C@H]([C@@H](C)CC)NC1=O) [Compound 29]
Result: < 100 nM
